Data origin: ChEMBL document CHEMBL3392926

- Test system: Trypanosoma cruzi
- methodDescription: microbe, parasite or virus in culture
- Assay type: functional, organism-based, Tulahuen C4 (LacZ)
- measurementConditions: Trypanosoma cruzi, Tulahuen C4 (LacZ), 96 h
- Description: DNDI: Chagas in Vitro, 96 hour
Listing: IC50 of selected molecules
metric: IC50 (µM)

- OCCN(CCO)c1nc(N2CCCCC2)c2nc(N(CCO)CCO)nc(N3CCCCC3)c2n1: 29.3
- CN(C)CCCN1c2ccccc2Sc2ccc(C(F)(F)F)cc21: 15
- CCC(C)n1ncn(-c2ccc(N3CCN(c4ccc(OCC5COC(Cn6cncn6)(c6ccc(Cl)cc6Cl)O5)cc4)CC3)cc2)c1=O (centres undefined): 0.004
- CN(C)CCCN1c2ccccc2Sc2ccccc21: 49.1

----------
Listing: IC50 of selected compounds
- Tested on: Plasmodium falciparum
- methodDescription: microbe, parasite or virus in culture
- Assay type: functional, organism-based, K1
- measurementConditions: Plasmodium falciparum, K1, 72 h
- Description: DNDI: Malaria in Vitro, 72 hour
metric: IC50 (µM)

* NC12CC3CC(CC(C3)C1)C2 | 5.67
* Cc1cc(C2CCCCC2)n(O)c(=O)c1 | 3.75
* CCN(CCCCOC(=O)c1ccc(OC)c(OC)c1)C(C)Cc1ccc(OC)cc1 (stereo unspecified) | 1.74
* COc1ccc2[nH]c([S+]([O-])Cc3ncc(C)c(OC)c3C)nc2c1 (stereo unspecified) | 13.2
* CN/C(=N\CCSCc1nc[nH]c1C)NC#N | 29.2
* CNCCC=C1c2ccccc2CCc2ccccc21 | 0.58
* CO[C@H]1/C=C/O[C@@]2(C)Oc3c(C)c(O)c4c(O)c(cc(O)c4c3C2=O)NC(=O)/C(C)=C\C=C\[C@H](C)[C@H](O)[C@@H](C)[C@@H](O)[C@@H](C)[C@H](OC(C)=O)[C@@H]1C | 0.55
* C[C@H](N)C12CC3CC(CC(C3)C1)C2 | 0.97
* C[C@H]1[C@@H](OC(=O)CCC(=O)O)O[C@@H]2O[C@]3(C)CC[C@H]4[C@H](C)CC[C@@H]1[C@@]24OO3 | 0.003
* COc1cc(C)c2c(Oc3cccc(C(F)(F)F)c3)c(OC)cc(N[C@H](C)CCCN)c2n1 | 0.27
* CCN(CC)CCCCCCNc1cc(OC)cc2c(C)ccnc12 | 0.08
* CC[C@@H]1OC(=O)[C@@H](C)[C@H](O[C@H]2C[C@@](C)(OC)[C@@H](O)[C@H](C)O2)[C@@H](C)[C@H](O[C@H]2O[C@@H](C)C[C@@H](N(C)C)[C@@H]2O)[C@@](C)(O)C[C@H](C)C(=O)[C@@H](C)[C@H](O)[C@@]1(C)O | 9.91
* C#C[C@]1(O)CC[C@H]2[C@@H]3CCC4=Cc5oncc5C[C@]4(C)[C@H]3CC[C@@]21C | 14.1

----------
- Test system: Trypanosoma cruzi
- methodDescription: microbe, parasite or virus in culture
- Type: functional, organism-based, Tulahuen C4 (LacZ)
- measurementConditions: Trypanosoma cruzi, Tulahuen C4 (LacZ), 96 h
pIC50: −log10 of the molar value.
metric: pIC50

* CC[C@@H]1OC(=O)[C@@H](C)[C@H](O[C@H]2C[C@@](C)(OC)[C@@H](O)[C@H](C)O2)[C@@H](C)[C@H](O[C@H]2O[C@@H](C)C[C@@H](N(C)C)[C@@H]2O)[C@@](C)(O)C[C@H](C)C(=O)[C@@H](C)[C@H](O)[C@@]1(C)O | 3.94
* CCCSc1ccc2[nH]c(NC(=O)OC)nc2c1 | 4.91
* O=C(N/N=C/c1ccc([N+](=O)[O-])o1)c1ccc(O)cc1 [NIFUROXAZIDE] | 6.64
* COc1cc(C)c2c(Oc3cccc(C(F)(F)F)c3)c(OC)cc(N[C@H](C)CCCN)c2n1 | 5.21
* CC(C)/N=c1\cc2n(-c3ccc(Cl)cc3)c3ccccc3nc-2cc1Nc1ccc(Cl)cc1 | 4.42
* CC(C)CN(C[C@@H](O)[C@H](Cc1ccccc1)NC(=O)O[C@H]1CO[C@H]2OCC[C@H]21)S(=O)(=O)c1ccc(N)cc1 | 4.04
